Molecular target: Beta-2 adrenergic receptor (Homo sapiens, UniProt P07550); note: assay procedure not described here
Sequence (P07550 whole entry): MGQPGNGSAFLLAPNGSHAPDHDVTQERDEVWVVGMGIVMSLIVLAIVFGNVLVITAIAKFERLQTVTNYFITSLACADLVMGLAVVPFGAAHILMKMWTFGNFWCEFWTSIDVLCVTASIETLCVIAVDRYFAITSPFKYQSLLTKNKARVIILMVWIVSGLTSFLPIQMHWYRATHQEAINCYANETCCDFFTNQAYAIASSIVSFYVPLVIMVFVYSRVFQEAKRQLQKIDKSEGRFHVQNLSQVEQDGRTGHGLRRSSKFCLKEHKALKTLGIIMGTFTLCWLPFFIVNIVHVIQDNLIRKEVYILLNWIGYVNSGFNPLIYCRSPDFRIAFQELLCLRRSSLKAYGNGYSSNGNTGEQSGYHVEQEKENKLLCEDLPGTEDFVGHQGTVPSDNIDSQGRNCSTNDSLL
Consider the following compounds and their measured AC50 readings.

[
  {
    "compound": "Cc1cccc(Nc2ccncc2S(=O)(=O)NC(=O)NC(C)C)c1 [TORSEMIDE]",
    "AC50": "> 10 µM"
  },
  {
    "compound": "Cc1cnc(Nc2ccc(OCCN3CCCC3)cc2)nc1Nc1cccc(S(=O)(=O)NC(C)(C)C)c1",
    "AC50": "> 10 µM"
  },
  {
    "compound": "C[C@H](Cn1cnc2c(N)ncnc21)OCP(=O)(O)O [TENOFOVIR ANHYDROUS]",
    "AC50": "> 30 µM"
  },
  {
    "compound": "C[C@]12CCC(=O)C=C1CC[C@H]1[C@@H]3CC[C@](O)(C(=O)CO)[C@@]3(C)C[C@H](O)[C@@]12F",
    "AC50": "> 10 µM"
  },
  {
    "compound": "COC(=O)[C@H]1[C@H]2C[C@@H]3c4[nH]c5ccccc5c4CCN3C[C@H]2C[C@@H](OC(=O)c2cc(OC)c(OC)c(OC)c2)[C@@H]1OC",
    "AC50": "> 10 µM"
  },
  {
    "compound": "C=CC1=C(C(=O)O)N2C(=O)[C@@H](NC(=O)/C(=N\\O)c3csc(N)n3)[C@H]2SC1",
    "AC50": "> 30 µM"
  },
  {
    "compound": "CC(C)CN(C[C@@H](O)[C@H](Cc1ccccc1)NC(=O)O[C@H]1CCOC1)S(=O)(=O)c1ccc(N)cc1",
    "AC50": "> 10 µM"
  }
]

* * *

Quick note: these are AC50 numbers for system: Adenosine receptor A3 (Homo sapiens, UniProt P0DMS8); note: assay procedure not described here
Sequence (P0DMS8 whole entry): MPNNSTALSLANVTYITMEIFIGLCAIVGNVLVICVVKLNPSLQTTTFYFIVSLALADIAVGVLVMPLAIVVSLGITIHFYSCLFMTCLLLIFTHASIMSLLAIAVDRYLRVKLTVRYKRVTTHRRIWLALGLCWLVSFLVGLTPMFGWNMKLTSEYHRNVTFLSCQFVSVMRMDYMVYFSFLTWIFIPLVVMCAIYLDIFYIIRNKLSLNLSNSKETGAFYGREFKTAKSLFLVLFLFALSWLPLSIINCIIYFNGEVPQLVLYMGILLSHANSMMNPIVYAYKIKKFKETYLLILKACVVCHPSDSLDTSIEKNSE
measured.parameter: AC50 (µM)

[
  {
    "compound": "COC(=O)N[C@H](C(=O)N1CC2(CC2)C[C@H]1c1ncc(-c2ccc3c(c2)C(F)(F)c2cc(-c4ccc5nc([C@@H]6[C@H]7CC[C@H](C7)N6C(=O)[C@@H](NC(=O)OC)C(C)C)[nH]c5c4)ccc2-3)[nH]1)C(C)C",
    "units.text": "µM",
    "relation.sign": ">",
    "measured": 10
  },
  {
    "compound": "COC(=O)N(C)c1c(N)nc(-c2nn(Cc3ccccc3F)c3ncccc23)nc1N [RIOCIGUAT]",
    "units.text": "µM",
    "relation.sign": "=",
    "measured": 13.9
  },
  {
    "compound": "CC1(C)CCC(C)(C)c2cc(NC(=O)c3ccc(C(=O)O)cc3)ccc21 [TAMIBAROTENE]",
    "units.text": "µM",
    "relation.sign": "=",
    "measured": 29.8
  }
]

* * *

Molecular target: Motilin receptor (Homo sapiens, UniProt O43193); note: assay procedure not described here
Sequence (O43193 whole entry): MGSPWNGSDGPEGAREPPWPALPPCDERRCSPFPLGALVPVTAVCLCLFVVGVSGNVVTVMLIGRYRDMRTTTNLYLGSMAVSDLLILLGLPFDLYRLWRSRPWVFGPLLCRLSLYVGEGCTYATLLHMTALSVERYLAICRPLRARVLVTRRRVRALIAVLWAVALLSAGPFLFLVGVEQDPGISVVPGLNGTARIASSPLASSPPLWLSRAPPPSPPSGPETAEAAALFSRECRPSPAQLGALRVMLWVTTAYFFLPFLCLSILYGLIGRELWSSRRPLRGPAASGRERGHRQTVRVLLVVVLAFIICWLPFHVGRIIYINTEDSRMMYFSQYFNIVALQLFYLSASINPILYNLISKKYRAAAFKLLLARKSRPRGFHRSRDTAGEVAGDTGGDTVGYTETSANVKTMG
measured.parameter: AC50

[
  {
    "compound": "CN1CCCN=C1/C=C/c1cccc(O)c1",
    "study.system": "Motilin receptor (Homo sapiens, UniProt O43193)",
    "measured": "> 30 µM"
  },
  {
    "compound": "CN(C)CCc1c[nH]c2ccc(CS(=O)(=O)N3CCCC3)cc12",
    "study.system": "Motilin receptor (Homo sapiens, UniProt O43193)",
    "measured": "> 30 µM"
  },
  {
    "compound": "COc1ccc2c3c1O[C@H]1C(=O)CC[C@H]4[C@@H](C2)N(C)CC[C@]314 [HYDROCODONE]",
    "study.system": "Motilin receptor (Homo sapiens, UniProt O43193)",
    "measured": "> 10 µM"
  },
  {
    "compound": "Oc1cc(Cl)ccc1Oc1ccc(Cl)cc1Cl",
    "study.system": "Motilin receptor (Homo sapiens, UniProt O43193)",
    "measured": "> 30 µM"
  },
  {
    "compound": "C[C@@H](O)[C@H]1C(=O)N2C(C(=O)O)=C(SCCN=CN)C[C@H]12 [IMIPENEM ANHYDROUS]",
    "study.system": "Motilin receptor (Homo sapiens, UniProt O43193)",
    "measured": "> 300 µM"
  },
  {
    "compound": "O=C1[C@@H]2[C@H]3CC[C@H](C3)[C@@H]2C(=O)N1C[C@@H]1CCCC[C@H]1CN1CCN(c2nsc3ccccc23)CC1",
    "study.system": "Motilin receptor (Homo sapiens, UniProt O43193)",
    "measured": "> 30 µM"
  },
  {
    "compound": "CNC1(C)C2CCC(C2)C1(C)C (centres undefined)",
    "study.system": "Motilin receptor (Homo sapiens, UniProt O43193)",
    "measured": "> 10 µM"
  },
  {
    "compound": "CCOCC(O)COc1ccc(NC(=O)CC[S+](C)C)cc1 (centres undefined)",
    "study.system": "Motilin receptor (Homo sapiens, UniProt O43193)",
    "measured": "> 30 µM"
  },
  {
    "compound": "Cn1cnc2c(F)c(Nc3ccc(Br)cc3F)c(C(=O)NOCCO)cc21",
    "study.system": "Motilin receptor (Homo sapiens, UniProt O43193)",
    "measured": "> 30 µM"
  },
  {
    "compound": "CCC(=O)O[C@H](CC(=O)O)C[N+](C)(C)C [LEVOCARNITINE PROPIONATE]",
    "study.system": "Motilin receptor (Homo sapiens, UniProt O43193)",
    "measured": "> 30 µM"
  },
  {
    "compound": "CO/N=C(\\C(=O)N[C@@H]1C(=O)N2C(C(=O)O)=C(CSc3nc(C)c(CC(=O)O)s3)CS[C@H]12)c1csc(N)n1",
    "study.system": "Motilin receptor (Homo sapiens, UniProt O43193)",
    "measured": "> 30 µM"
  },
  {
    "compound": "CC(C)(C)NCC(O)COc1cccc2c1CC(O)C(O)C2 (centres undefined)",
    "study.system": "Motilin receptor (Homo sapiens, UniProt O43193)",
    "measured": "> 10 µM"
  },
  {
    "compound": "CC1=C(CC(=O)O)c2cc(F)ccc2/C1=C\\c1ccc([S+](C)[O-])cc1 (centres undefined)",
    "study.system": "Motilin receptor (Homo sapiens, UniProt O43193)",
    "measured": "> 10 µM"
  },
  {
    "compound": "CC(C)C[C@H](NC(=O)[C@H](Cc1ccccc1)NC(=O)c1cnccn1)B(O)O",
    "study.system": "Motilin receptor (Homo sapiens, UniProt O43193)",
    "measured": "> 30 µM"
  },
  {
    "compound": "CN1CCC(=C2c3ccccc3CC(=O)c3sccc32)CC1",
    "study.system": "Motilin receptor (Homo sapiens, UniProt O43193)",
    "measured": "> 10 µM"
  },
  {
    "compound": "O=C(C[S+]([O-])Cc1ccco1)NC/C=C\\COc1cc(CN2CCCCC2)ccn1 (centres undefined)",
    "study.system": "Motilin receptor (Homo sapiens, UniProt O43193)",
    "measured": "> 10 µM"
  },
  {
    "compound": "NS(=O)(=O)c1ccc(N2CCCCS2(=O)=O)cc1",
    "study.system": "Motilin receptor (Homo sapiens, UniProt O43193)",
    "measured": "> 30 µM"
  },
  {
    "compound": "COc1ccc(C(Cl)=C(c2ccc(OC)cc2)c2ccc(OC)cc2)cc1",
    "study.system": "Motilin receptor (Homo sapiens, UniProt O43193)",
    "measured": "> 30 µM"
  },
  {
    "compound": "CCOc1ccccc1OCCN[C@H](C)Cc1ccc(OC)c(S(N)(=O)=O)c1",
    "study.system": "Motilin receptor (Homo sapiens, UniProt O43193)",
    "measured": "> 10 µM"
  }
]
